pIC50 values for the compounds below.
TARGET OR TEST SYSTEM: mycothiol S-conjugate amidase (MCA) (Mycolicibacterium smegmatis)
Sequence (A0R2W9 whole entry): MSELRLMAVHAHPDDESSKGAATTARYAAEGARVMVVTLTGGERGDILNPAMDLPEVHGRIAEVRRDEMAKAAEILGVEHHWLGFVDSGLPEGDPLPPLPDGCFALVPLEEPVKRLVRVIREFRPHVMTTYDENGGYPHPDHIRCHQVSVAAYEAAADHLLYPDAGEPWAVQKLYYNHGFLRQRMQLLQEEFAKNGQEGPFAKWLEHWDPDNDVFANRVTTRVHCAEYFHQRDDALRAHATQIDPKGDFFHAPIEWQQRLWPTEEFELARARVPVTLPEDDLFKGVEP
ASSAY INFO: Fluorescence-detected HPLC assay of MCA cleavage of MSmB (50 μM MSmB as substrate), Examples 1 and 3
Assay type: biochemical
CONDITION PARAMETERS: 50 μM MSmB as substrate; read-out: concentration that inhibited mycothiol S-conjugate amidase by 50%
Scale explanation: pIC50 corresponds to minus log10 of a concentration expressed in moles per litre.

In [3]: df
Out[3]:
                                   compound  value
0  COC1=C(Br)[C@@H](O)[C@]2(C=C1Br)CC(C(=O)NCCc1cnc(N)[nH]1)=NO2   4.00

// switching to the query compound
Ask: Find the recorded pIC50 belonging to COC1=C(Br)C[C@]2(OC=C1Br)ON=C(C(=O)NCCCOc1c(Br)cc(C(O)CN)cc1Br)[C@@H]2O (some centres unmarked) and report it.
Reply: 5.52

Source: patent US7642280B2
